Target: ATP-sensitive inward rectifier potassium channel 1 (Homo sapiens) (UniProt P48048)
Sequence (P48048 whole entry, looked up): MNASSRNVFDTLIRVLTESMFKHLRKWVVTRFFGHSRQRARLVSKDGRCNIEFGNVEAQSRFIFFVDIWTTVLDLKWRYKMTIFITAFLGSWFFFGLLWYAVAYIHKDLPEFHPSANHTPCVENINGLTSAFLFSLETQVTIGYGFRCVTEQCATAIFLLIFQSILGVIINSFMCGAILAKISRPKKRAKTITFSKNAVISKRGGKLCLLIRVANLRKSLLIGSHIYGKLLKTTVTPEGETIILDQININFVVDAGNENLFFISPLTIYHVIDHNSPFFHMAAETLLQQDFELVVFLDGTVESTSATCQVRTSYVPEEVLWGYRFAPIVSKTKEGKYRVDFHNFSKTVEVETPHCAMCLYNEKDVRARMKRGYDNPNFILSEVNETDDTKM
Test: ROMK channel inhibitor potency, dose response, cell-based, thallium flux, HEK293 (AID 2753)
Details: fluorescence
The source made the active and inactive calls. No rule for the calls is given here.
value.type: IC50

1) CC1CCN(C(=O)CSCC(=O)Nc2nc(-c3cccs3)cs2)CC1 = inactive
2) CCOC(=O)c1ccc(-n2c(O)c(/C=N/NC(=O)C3COc4ccccc4O3)c3ccccc3c2=O)cc1 (stereo unspecified) = inactive
3) CC(C)c1[nH]nc2c1C(c1cccs1)C(C#N)=C(N)O2 (stereo unspecified) = inactive
4) Cc1ccc(C(C)C)c(OCC(=O)NN=C(CCl)CCl)c1 = inactive
5) O=C1ON=C(c2cccc([N+](=O)[O-])c2)/C1=C/c1ccc(O)cc1 = 5.68 µM
6) COCCNC(=O)/C(C#N)=C/c1cccc(/C=C(\C#N)C(=O)NCCOC)c1 = 2.87 µM
7) O=C(Nc1ccc2oc(=O)ccc2c1)c1cc([N+](=O)[O-])ccc1N1CCOCC1 = 3.41 µM
8) CN(CCCC(=O)Nc1ccncc1)S(=O)(=O)c1ccc(Cl)cc1 = inactive
9) COc1ccccc1-n1c(SCC(=O)N2CCc3ccccc32)nc2c(c1=O)SCC2 = 6.43 µM
10) CCOC(=O)c1c(C)n(C)c2ccc(OC)c(NC(=O)CN3CCCCC3)c12 = 7.88 µM
11) Cn1c(/C(C#N)=C/c2cccc(O)c2)nc2ccccc21 = inactive
12) N#CC1=C(N)N(c2ccccc2)C(c2cccc([N+](=O)[O-])c2)C1(C#N)C#N (stereo unspecified) = 11.5 µM
13) O=C1c2[nH]nc(-c3ccccc3O)c2C(c2cccc(Cl)c2)N1CC1CCCO1 (stereo unspecified) = inactive
14) Cc1cccc(C2c3[nH]c4ccccc4c3CCN2C(=O)c2nn(C)c(=O)c3ccccc23)n1 (stereo unspecified) = inactive
15) Cc1cc(C)c(C)c(S(=O)(=O)NC2CCN(Cc3ccccc3)CC2)c1C = 17 µM
16) COCCNC(=O)/C(C#N)=C/c1c(F)cccc1Cl = 9.2 µM
17) O=C(/C(=C/c1ccc(Cl)cc1)c1nc2ccccc2[nH]1)c1cccs1 = 4.56 µM
18) Cc1ccc(-n2c3nc(=O)[nH]c(=O)c-3cc3cc([N+](=O)[O-])ccc32)cc1 = 8.66 µM
19) COc1cc(NC(=O)C2CCN(S(=O)(=O)c3ccc(Cl)cc3)CC2)ccc1-n1cnnn1 = 2.1 µM
20) N#C/C(=C/c1ccncc1)c1nc2ccccc2s1 = 2.68 µM
21) CCN(CC)S(=O)(=O)c1ccc(OC)c(NC(=O)CSc2cc(C)ccc2C)c1 = 12.8 µM

###

Target: UniProtKB P48048
Assay: ROMK channel inhibitor potency, dose response, cell-based, thallium flux, HEK293 (AID 2753)
Settings: fluorescence
Calls of active or inactive are those of the source. No rule for the calls is given here.
Outcome codes: label 1 = active, label 0 = inactive

1. Cc1ccc(C2=NOC(=O)/C2=C\c2ccc(C)o2)cc1 = label 1
2. Cc1cc(=O)oc2cc(NC(=S)NCc3ccccn3)ccc12 = label 1
3. CC(=O)/C(=C/c1ccccc1)C(=O)Nc1ccccc1C = label 1
4. Cc1ccc(/C=C(\C#N)C(=O)NCCN2CCOCC2)cc1 = label 0
5. N#C/C(=C\c1cccc(Oc2ccccc2)c1)C(=O)N1CCOCC1 = label 1
6. COc1ccc(NC(=O)/C(C#N)=C/c2ccc(Sc3nncn3C)c([N+](=O)[O-])c2)cc1 = label 1

###

Biological target: ATP-sensitive inward rectifier potassium channel 1 (Homo sapiens)
Assay: ROMK channel inhibitor potency, dose response, cell-based, thallium flux, HEK293 (AID 2753)
Conditions: fluorescence
The source made the active and inactive calls. No rule for the calls is given here.
Possible outcomes: yes (active), no (inactive)

1. CCCC(C(=O)NCc1ccco1)N(C(=O)CNS(=O)(=O)c1ccccc1)c1ccccc1OC (stereo unspecified) = no
2. O=C(CCl)N(Cc1cccc([N+](=O)[O-])c1)c1cccc(Cl)c1 = yes
3. CCCS(=O)(=O)c1nnnn1-c1cccc(OC)c1 = no
4. Cc1ccccc1-n1sc2cc(F)ccc2c1=O = no
5. N#C/C(=C\C1CC=CCC1)c1nc2ccccc2[nH]1 (stereo unspecified) = no
6. CCCNC(=O)c1nnsc1S(=O)(=O)c1ccc(Cl)cc1 = yes

###

Target: ATP-sensitive inward rectifier potassium channel 1 (Homo sapiens)
Assay: ROMK channel inhibitor potency, dose response, cell-based, thallium flux, HEK293 (AID 2753)
Settings: fluorescence
Active and inactive are the calls of the source. No rule for the calls is given here.
Labels: yes = active, no = inactive

1) Cc1nn(-c2ccccc2)c(Cl)c1/C=C(\C#N)C(=O)NC(C)C = yes
2) N#C/C(=C\c1cccc([N+](=O)[O-])c1)c1nnc2n1CCCCC2 = no
3) CC(C)(C)c1ccc(N2C(=N)SCC2=O)cc1 = yes
4) CCC(CC)C(=O)Nc1c2cnn(-c3ccccc3)c2nc(=O)n1-c1ccccc1 = yes
5) CC(CCc1ccccc1)NC(=O)CN1CCN(c2ccccc2)CC1 (stereo not given) = no
6) Cc1cc(C)n2nc(/C(C#N)=C/c3ccccn3)c(C#N)c2n1 = yes
7) N#Cc1ccc(/C=C/C(=O)c2cccnc2)cc1 = yes
8) Cc1ccc2nc(NC(=O)C(NS(=O)(=O)c3cccc4nsnc34)C(C)C)sc2c1 (stereo not given) = no
9) COC(=O)/C=C1/SC(=NC(=O)c2ccc(F)cc2)NC1=O = yes
10) COC(=O)N/N=C/c1ccc(-c2cc(Cl)ccc2Cl)o1 = yes

###

Biological target: ATP-sensitive inward rectifier potassium channel 1 (Homo sapiens)
Test: ROMK channel inhibitor potency, dose response, cell-based, thallium flux, HEK293 (AID 2753)
Conditions: fluorescence
The source made the active and inactive calls. The rule behind the calls is not given here.
Outcomes: class 1 (active), class 0 (inactive)

1. COc1ccccc1/C=C(\C#N)C(=O)Nc1ccc(S(N)(=O)=O)cc1 = class 0
2. O=C(CCl)N(c1ccccc1)c1ccccc1 = class 0
3. N#Cc1cccc(N=c2ssnc2Cl)c1 = class 1
4. Cc1ccc(Oc2c(C(N)=O)cc([N+](=O)[O-])cc2[N+](=O)[O-])cc1 = class 1
5. O=C(/C=C/c1cn(CC(O)CN2CCCCC2)c2ccccc12)c1ccccc1 (configuration not stated) = class 0
6. O=C1CC(N2CCN(Cc3ccc4c(c3)OCO4)CC2)C(=O)N1c1cccc2ccccc12 (configuration not stated) = class 0
7. CCN1C(=O)c2cccc3c(S(=O)(=O)Nc4ccccc4OC)ccc1c23 = class 0
8. Cc1ccc2[nH]cc(C(=O)CCl)c2c1 = class 1
9. Cc1nn(CCCC(=O)N2CCN(c3ccc(F)cc3)CC2)c(C)c1[N+](=O)[O-] = class 0
10. COc1ccc(NC(=O)/C(Cl)=C(/Cl)S(=O)Cc2ccccc2)cn1 (configuration not stated) = class 1
11. Cc1cc(N2CCOCC2)ccc1/C=C\[N+](=O)[O-] = class 1
12. CC1CCCCC1NC(=O)CN1C(=O)CSc2cc(S(=O)(=O)N3CCCCCC3)ccc21 (configuration not stated) = class 1
13. CC1CN(c2ccc([N+](=O)[O-])c(NCCOc3ccccc3)c2)CCN1 (configuration not stated) = class 0
14. Cc1c(N2C(=O)/C(=C\C3CC=CCC3)SC2=S)c(=O)n(-c2ccccc2)n1C (configuration not stated) = class 1
15. O=C(CN1CCCC1)Nc1c2c(nc3ccccc13)N(Cc1ccccc1)CC2 = class 0
16. COC(=O)/C=C1\SC(=NC(=O)c2cccc(Cl)c2)NC1=O = class 0
17. CC(C)C(c1nnnn1Cc1ccccc1)N1CCN(Cc2ccc3c(c2)OCO3)CC1 (configuration not stated) = class 1
18. N#C/C(=C\c1ccc(Cl)c([N+](=O)[O-])c1)c1ccccn1 = class 1
19. Cc1cc(NC(=O)/C=C/C(=O)N(CC(=O)NC2CCCC2)c2cccc3ccccc23)no1 = class 1
20. C[n+]1c2n(c3ccccc31)N=C(c1cc(C(C)(C)C)c(O)c(C(C)(C)C)c1)CS2 = class 1
21. CCCNC(=O)c1nnsc1S(=O)c1ccc(Cl)cc1 (configuration not stated) = class 1
22. Cc1c(Nc2cc(Cl)c3nonc3c2[N+](=O)[O-])c(=O)n(-c2ccccc2)n1C = class 1

###

Biological target: ATP-sensitive inward rectifier potassium channel 1 (Homo sapiens) (UniProt P48048)
Assay: ROMK channel inhibitor potency, dose response, cell-based, thallium flux, HEK293 (AID 2753)
Conditions: fluorescence
The source made the active and inactive calls. How the calls were made is not given here.
Classes used: active, inactive

1. Cc1ccc(C)n1-c1ccc(-n2cnnn2)cc1 = active
2. CCOC(=O)c1c(NC(=O)C[n+]2ccc(Cc3ccccc3)cc2)sc(C)c1C = inactive
3. COc1ccc2c(c1OC)C(=O)OC2Nc1nc(-c2cc3ccccc3oc2=O)cs1 (stereo unspecified) = inactive
4. Cc1cc(Cl)c(S(=O)(=O)Nc2ccc3c(c2)OCCO3)cc1OCC(=O)NC1CCCCC1 = active
5. COc1cccc(C(c2nnnn2Cc2ccccc2)N2CCN(C3CCCC3)CC2)c1OC (stereo unspecified) = active
6. COc1cc(/C=C(/C(=O)c2cccs2)c2nc3ccccc3[nH]2)ccc1O = inactive
7. O=C(N/N=C/c1cn(-c2cccs2)nc1-c1ccccc1)c1ccc(O)cc1 = active
8. O=C(NCc1ccccc1)N1CCC(n2cnc3cc(F)ccc32)CC1 = inactive
9. CCCCC1(CCCC)C(=O)NC(=Nc2cccc(C)c2)NC1=O = active
10. Cc1ccc(N2C(=O)NC(=O)/C(=C\C=C\c3ccco3)C2=O)cc1C = active
11. CNC(=O)c1nnsc1S(=O)c1ccc(Cl)cc1 (stereo unspecified) = active
